Target: T1, Nbp2, Q12163
T1 sequence (Q12163 103-180, looked up): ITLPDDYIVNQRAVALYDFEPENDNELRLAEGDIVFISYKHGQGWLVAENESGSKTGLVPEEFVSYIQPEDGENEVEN
Experiment: SPOT array
Details: median of control spots 357
result-type: SPOT intensity
Numbers only.

Example cases with answers are listed next.
TTAPALPSLPPPPLL : 0
NFFRKKLGIPRKLKR : 72
AATTSTPPLPRRRAT : 0
RPVPRRPSQPLNTLS : 71
KMSRSPPRPPSLKII : 513
RHLKLVPSTPMDIPW : 3

Data request, read-out SPOT intensity, for GKKVRPLLVLLLSRA 10
